experiment: Cmax in albino guinea pig cage fluid at 3 mg/kg, ip administered as single dose; assay type: ADME, organism-based, Cavia porcellus, Interstitial fluid; parameters: dose 3 mg/kg, route intraperitoneal
ENDPOINT: Cmax (ng/mL)
The reply should be a number in ng/mL, with the unit left off.

Exercise: I am curious: what Cmax value has been reported for `CO[C@H]1/C=C/O[C@@]2(C)Oc3c(C)c(O)c4c(=O)c(c5oc6cc(N7CCN(C)CC7)cc(O)c6nc-5c4c3C2=O)NC(=O)/C(C)=C\C=C\[C@H](C)[C@H](O)[C@@H](C)[C@@H](O)[C@@H](C)[C@H](O)[C@@H]1C` ?
Solution: 110

---

assay: in vivo; conditions: guinea pig, cage fluid, ip, 5 mg/kg
Description: Cmax in albino guinea pig cage fluid at 5 mg/kg, ip administered as single dose
ENDPOINT: Cmax (ng/mL)
The figure you give is taken to be in ng/mL; do not add the unit.

Exercise: Query: Cmax; subject: `C[C@H]1COc2c(N3CCN(C)CC3)c(F)cc3c(=O)c(C(=O)O)cn1c23.C[C@H]1COc2c(N3CCN(C)CC3)c(F)cc3c(=O)c(C(=O)O)cn1c23.O`
Solution: 970

---

experiment: Cmax in albino guinea pig cage fluid at 12.5 mg/kg, ip administered as single dose; assay type: ADME, organism-based, Cavia porcellus, Interstitial fluid; parameters: dose 12.5 mg/kg, route intraperitoneal
ENDPOINT: Cmax (ng/mL)
Answer in ng/mL, number only, no unit symbol.

Exercise: Need Cmax, item `CO[C@H]1/C=C/O[C@@]2(C)Oc3c(C)c(O)c4c(=O)c(c5oc6cc(N7CCN(C)CC7)cc(O)c6nc-5c4c3C2=O)NC(=O)/C(C)=C\C=C\[C@H](C)[C@H](O)[C@@H](C)[C@@H](O)[C@@H](C)[C@H](O)[C@@H]1C`
Solution: 1130

---

Listed here are compounds together with their documented Cmax.
assay: Cmax in albino guinea pig cage fluid at 12.5 mg/kg, ip administered every 12 hrs for 4 days; type: ADME, organism-based, Cavia porcellus, Interstitial fluid; parameters: dose 12.5 mg/kg, route intraperitoneal

CO[C@H]1/C=C/O[C@@]2(C)Oc3c(C)c(O)c4c(=O)c(c5oc6cc(N7CCN(C)CC7)cc(O)c6nc-5c4c3C2=O)NC(=O)/C(C)=C\C=C\[C@H](C)[C@H](O)[C@@H](C)[C@@H](O)[C@@H](C)[C@H](O)[C@@H]1C ... 820 ng/mL

Turning now to a further compound:
Exercise: Give its Cmax value. Item: `CO[C@H]1/C=C/O[C@@]2(C)Oc3c(C)c(O)c4c(O)c(c(/C=N/N5CCN(C)CC5)c(O)c4c3C2=O)NC(=O)/C(C)=C\C=C\[C@H](C)[C@H](O)[C@@H](C)[C@@H](O)[C@@H](C)[C@H](OC(C)=O)[C@@H]1C`
Solution: 610 ng/mL
